Assay: chemical genetic growth profiling, strain panel (AID 1159580);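 also: tested at 20 µM; growth read once vehicle control cultures reached saturation at 30 °C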
Details: S. cerevisiae deletion strains, growth OD, locus YNL322C, strain KRE1, active compounds read low
About 2,000 (36%) of roughly 5,500 compounds were called active. Inconclusive results (about 18%) are left out. The list shows a part of the results.
Kindly apply the following: Yes if normalized growth is less than 1, No in every other case.

Input C[C@]12CCC3C(CC[C@H]4C[C@@H](O)CC[C@]34C)C1CC[C@@H]2O (stereo partly specified) ; condition: normalized growth strictly below 1. Does it hold?
No

Is 1 strictly greater than the compound's reported normalized growth? compound: CCCCCCCCCCCC(=O)OCC(COP(=O)(O)OCC(O)COP(=O)(O)OCC(COC(=O)CCCCCCCCCCC)OC(=O)CCCCCCCCCCC)OC(=O)CCCCCCCCCCC (stereo unspecified)
Yes

---

Test: chemical genetic growth profiling, strain panel (AID 1159580);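 also: tested at 20 µM; growth read once vehicle control cultures reached saturation at 30 °C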
Settings: S. cerevisiae deletion strains, growth OD, locus YHR129C, strain ARP1
The campaign covered roughly 5,500 compounds. About 2,000 (36%) were called active. Roughly 18% stayed inconclusive and do not appear here. No stated cut-off is given here; in the data, active means normalized growth mostly below about 0.91 (no sharp cut-off); inconclusive means no clear call, values can overlap the other calls; inactive means mostly above about 0.92. This is one part of the list.
Just give me one of these, please: active, inactive

Could you kindly confirm the outcome this assay logged for `NCCCCCC(=O)O` ?
inactive

What classification did `Oc1c(Cl)cc(Cl)c(Cl)c1Cc1c(O)c(Cl)cc(Cl)c1Cl` end up with in this test?
active

Test call for this compound, please: `NCCCNCCSP(=O)(O)O`
inactive

What was the test verdict on O=c1[nH]c(=O)n(C2C[C@H](O)[C@@H](CO)O2)cc1C(F)(F)F (some centres not stated) ?
inactive

What classification did `O=C(O)CCCCCCCC(=O)O` end up with in this test?
inactive

Hi team, can someone confirm the assay call for C[C@@H]1CC[C@H]2C(C)(C)C3CC12CC[C@@]3(C)O (some centres not stated) ?
inactive

Field: outcome | Entry: `CC(=O)O[C@]1(C)CC[C@@]23CC1C(C)(C)[C@@H]2CC[C@H]3C`
inactive

---

Experiment: chemical genetic growth profiling, strain panel (AID 1159580);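 also: tested at 20 µM; growth read once vehicle control cultures reached saturation at 30 °C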
Conditions: S. cerevisiae deletion strains, growth OD, locus YKL085W, strain MDH1 (second series)
About 2,000 (36%) of roughly 5,500 compounds were called active. Roughly 18% stayed inconclusive and do not appear here. Rule as the data show it: active = normalized growth mostly below about 0.91 (no sharp cut-off); inconclusive = no clear call, values can overlap the other calls; inactive = mostly above about 0.92. Some of the results follow.
Write down the outcome that applies. Available outcomes: active, inactive

# lookup: test call for CC(=O)O[C@H]1C[C@@]2(C)[C@@H](C[C@@H](O)C3[C@]2(C)CC[C@H]2[C@H](C)[C@H](O)CC[C@]32C)/C1=C(/CCC=C(C)C)C(=O)O (stereo partly specified)
inactive

Which outcome did this test record for the compound `COP(=S)(OC)Oc1ccc([N+](=O)[O-])cc1` ?
inactive

Given `c1ccc2c(CC3=NCCN3)cccc2c1` , state the outcome it received in this test.
inactive

What was the test verdict on COC1=CC(=O)OC(CCc2ccc(OC)c(OC)c2)C1 (stereo unspecified) ?
inactive

Could you check what this test reported for Cc1cccc(C)c1NC(=O)C1CCCCN1C (stereo unspecified) ?
inactive

Outcome? Clc1ccc(COC(Cn2ccnc2)c2ccc(Cl)cc2Cl)c(Cl)c1 (stereo unspecified)
active

Name the outcome recorded for C[C@]12CCC3C(CC[C@H]4C[C@H](O)CC[C@]34C)C1CC[C@@H]2O (stereo partly specified) in the assay.
inactive

Recorded test call requested for COc1ccc2c(c1)OCC(Cc1ccc(OC)c(OC(C)=O)c1)C2=O (stereo unspecified)
inactive

Status in this test for COC[C@]12CN(C=O)C3[C@@H]4[C@H](OC)C1[C@]3(C1CC3(O)C(OC)C(O)C4(OC(C)=O)C1C3OC(=O)c1ccccc1)[C@@H](OC)C[C@H]2O (stereo partly specified) ?
inactive

Could you check what this test reported for CCCCCCCCCCCC(=O)OCC(COP(=O)(O)OCC(O)COP(=O)(O)OCC(COC(=O)CCCCCCCCCCC)OC(=O)CCCCCCCCCCC)OC(=O)CCCCCCCCCCC (stereo unspecified) ?
inactive

What did this assay record as the result for CC(=O)C1CCC2C3CCC4C[C@H](O)CCC4(C)C3C[C@H](O)C12C (stereo partly specified) ?
inactive

Dear colleague, could you share the recorded outcome for CC(=O)C1CC[C@H]2C3CC[C@H]4C[C@H](O)CC[C@]4(C)C3CC[C@]12C (stereo partly specified) when you have a moment?
inactive

Hi team, can someone confirm the assay call for COc1ccc2c(c1)OCC(Cc1ccc(OC)c(O)c1)C2=O (stereo unspecified) ?
inactive

Lab log entry: `O=C1CCCCC/C=C/CCCCCCCCO1` — outcome as called in the assay?
inactive

Tell me the assay call for `Cc1oncc1C(=O)Nc1ccc(C(F)(F)F)cc1` please.
inactive

Give the logged outcome of this assay for the following compound: O=C(O)C1CCCNC1 (stereo unspecified)
inactive

Per the records of this test, what outcome belongs to COC(=O)/C(C)=C\CC12OC(C)(C)C3CC(C=C4C(=O)c5c(OC)c6c(c(CC=C(C)C)c5OC431)OC(C)(CCC=C(C)C)C=C6)C2=O (stereo unspecified) ?
inactive

Field: outcome | Entry: `Oc1c(Cl)cc(Cl)c(Cl)c1Cc1c(O)c(Cl)cc(Cl)c1Cl`
active

Short answer needed: outcome of this test for COc1ccc2c(c1)OCC(Cc1ccc(OC)c(OC)c1)C2=O (stereo unspecified) ?
inactive

Status in this test for `O=c1oc2ccccc2cc1O` ?
inactive

Called result for O=c1cccc2n1CC1CC2CN2CCCC[C@@H]12 (stereo partly specified)
inactive

Source listed as PubChem BioAssay AID1159580.
